Origin of the recorded values: ChEMBL document CHEMBL4219273

# tgt: UniProt O00763
# Sequence (O00763 whole entry): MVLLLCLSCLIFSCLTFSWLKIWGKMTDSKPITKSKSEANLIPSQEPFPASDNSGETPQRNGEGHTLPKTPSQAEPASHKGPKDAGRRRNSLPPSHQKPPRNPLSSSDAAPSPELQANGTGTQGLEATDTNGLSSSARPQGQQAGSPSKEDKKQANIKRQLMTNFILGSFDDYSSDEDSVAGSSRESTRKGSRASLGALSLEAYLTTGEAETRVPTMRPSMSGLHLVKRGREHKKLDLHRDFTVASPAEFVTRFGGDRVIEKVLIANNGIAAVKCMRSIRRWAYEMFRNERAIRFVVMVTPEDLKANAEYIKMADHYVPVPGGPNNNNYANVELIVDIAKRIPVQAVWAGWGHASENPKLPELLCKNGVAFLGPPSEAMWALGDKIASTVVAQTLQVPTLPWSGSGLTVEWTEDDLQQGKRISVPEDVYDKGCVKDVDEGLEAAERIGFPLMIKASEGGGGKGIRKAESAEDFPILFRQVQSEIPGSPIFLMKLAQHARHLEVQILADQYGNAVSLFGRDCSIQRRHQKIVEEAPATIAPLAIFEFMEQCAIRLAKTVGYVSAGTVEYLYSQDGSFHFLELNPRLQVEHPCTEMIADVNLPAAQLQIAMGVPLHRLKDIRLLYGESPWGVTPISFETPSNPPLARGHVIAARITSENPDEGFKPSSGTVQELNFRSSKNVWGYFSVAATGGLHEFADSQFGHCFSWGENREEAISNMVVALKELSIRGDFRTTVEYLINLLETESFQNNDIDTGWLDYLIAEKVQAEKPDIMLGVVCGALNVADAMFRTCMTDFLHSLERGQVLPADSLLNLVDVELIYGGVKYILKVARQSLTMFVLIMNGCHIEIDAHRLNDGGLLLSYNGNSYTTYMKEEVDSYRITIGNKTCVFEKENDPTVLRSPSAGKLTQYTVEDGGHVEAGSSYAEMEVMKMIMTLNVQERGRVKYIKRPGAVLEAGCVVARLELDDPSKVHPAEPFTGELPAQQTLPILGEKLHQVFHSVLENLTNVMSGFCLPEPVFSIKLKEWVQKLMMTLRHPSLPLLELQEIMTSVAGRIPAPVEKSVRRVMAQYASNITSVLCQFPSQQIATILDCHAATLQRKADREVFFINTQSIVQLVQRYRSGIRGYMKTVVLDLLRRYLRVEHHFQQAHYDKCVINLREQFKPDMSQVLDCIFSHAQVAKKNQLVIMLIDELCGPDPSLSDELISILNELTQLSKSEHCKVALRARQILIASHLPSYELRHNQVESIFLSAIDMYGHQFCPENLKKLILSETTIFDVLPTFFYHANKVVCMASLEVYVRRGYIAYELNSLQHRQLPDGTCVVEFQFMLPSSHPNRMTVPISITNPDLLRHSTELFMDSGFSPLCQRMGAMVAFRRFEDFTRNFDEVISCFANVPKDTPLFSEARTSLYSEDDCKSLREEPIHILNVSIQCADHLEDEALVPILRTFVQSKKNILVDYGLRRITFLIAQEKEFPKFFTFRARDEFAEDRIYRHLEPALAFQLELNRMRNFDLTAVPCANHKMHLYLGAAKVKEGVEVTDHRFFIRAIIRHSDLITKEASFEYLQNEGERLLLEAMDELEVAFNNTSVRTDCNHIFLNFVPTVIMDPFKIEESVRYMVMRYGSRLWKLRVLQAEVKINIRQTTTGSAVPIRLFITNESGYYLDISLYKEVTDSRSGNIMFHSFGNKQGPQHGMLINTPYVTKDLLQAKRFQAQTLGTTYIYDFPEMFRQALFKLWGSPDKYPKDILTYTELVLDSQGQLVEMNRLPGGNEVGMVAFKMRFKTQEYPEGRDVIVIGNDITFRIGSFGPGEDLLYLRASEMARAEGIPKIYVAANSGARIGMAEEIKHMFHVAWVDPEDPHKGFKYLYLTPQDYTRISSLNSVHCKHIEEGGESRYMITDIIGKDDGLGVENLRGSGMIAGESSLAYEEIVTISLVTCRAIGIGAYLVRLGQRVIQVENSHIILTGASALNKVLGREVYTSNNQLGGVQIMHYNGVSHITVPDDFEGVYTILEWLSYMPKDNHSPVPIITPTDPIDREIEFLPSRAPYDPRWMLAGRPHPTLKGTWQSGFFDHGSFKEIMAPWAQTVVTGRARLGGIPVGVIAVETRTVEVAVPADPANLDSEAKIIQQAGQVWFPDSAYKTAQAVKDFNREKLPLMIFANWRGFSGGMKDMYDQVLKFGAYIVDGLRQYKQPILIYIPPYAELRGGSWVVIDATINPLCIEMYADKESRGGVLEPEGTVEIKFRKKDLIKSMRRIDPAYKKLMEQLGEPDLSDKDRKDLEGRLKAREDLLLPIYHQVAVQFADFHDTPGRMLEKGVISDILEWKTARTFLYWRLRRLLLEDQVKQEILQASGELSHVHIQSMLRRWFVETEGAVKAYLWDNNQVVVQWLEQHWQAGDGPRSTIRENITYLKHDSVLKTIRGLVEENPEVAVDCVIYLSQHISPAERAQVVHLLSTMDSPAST
# measurementProtocol: Inhibition of recombinant human ACC2 assessed as reduction in conversion of acetyl-CoA to malonyl-CoA incubated for 1 to 3 hrs with substrate by MALDI-TOF-MS analysis
pIC50: −log10 of the molar value.
quantityKind: pIC50

* CC(=O)N[C@@H](C)/C=C/c1ccc(Oc2ccc(OCCF)cc2Cl)nc1 | 6.73
* CC(=O)N[C@@H](C)/C=C/c1ccc(Oc2ccc3nc(C)sc3c2Cl)nc1 | 7.59
* CCOc1ccc(Oc2ncc(/C=C/[C@H](C)NC(C)=O)s2)cc1 | 7.10
* CC(=O)N[C@@H](C)/C=C/c1ccc(Oc2ccc3nc(C(C)C)sc3c2C(F)(F)F)nc1 | 7.23
* CC(=O)N[C@@H](C)/C=C/c1ccc(Oc2ccc3nc(C(C)C)sc3c2F)nc1 | 8.68
* CC(=O)N[C@@H](C)/C=C/c1ccc(Oc2cc3sc(C)nc3cc2Cl)nc1 | 6.33
* CC(=O)N[C@@H](C)/C=C/c1cnc(Oc2ccc(OCC3CC3)cc2)s1 | 7.51
* CCOc1ccc(Oc2ccc(/C=C/[C@H](C)NC(C)=O)cn2)c(Cl)c1 | 7.34
* COC(=O)N[C@@H](C)/C=C/c1cnc(Oc2ccc(OC(C)C)cc2)s1 | 7.12
* CC(=O)N[C@@H](C)/C=C/c1cnc(Oc2ccc(OCC3CC3)cc2Cl)s1 | 7.89

* * *

Notes on pIC50 obtained with UniProt:P11712.
Sequence (P11712 whole entry): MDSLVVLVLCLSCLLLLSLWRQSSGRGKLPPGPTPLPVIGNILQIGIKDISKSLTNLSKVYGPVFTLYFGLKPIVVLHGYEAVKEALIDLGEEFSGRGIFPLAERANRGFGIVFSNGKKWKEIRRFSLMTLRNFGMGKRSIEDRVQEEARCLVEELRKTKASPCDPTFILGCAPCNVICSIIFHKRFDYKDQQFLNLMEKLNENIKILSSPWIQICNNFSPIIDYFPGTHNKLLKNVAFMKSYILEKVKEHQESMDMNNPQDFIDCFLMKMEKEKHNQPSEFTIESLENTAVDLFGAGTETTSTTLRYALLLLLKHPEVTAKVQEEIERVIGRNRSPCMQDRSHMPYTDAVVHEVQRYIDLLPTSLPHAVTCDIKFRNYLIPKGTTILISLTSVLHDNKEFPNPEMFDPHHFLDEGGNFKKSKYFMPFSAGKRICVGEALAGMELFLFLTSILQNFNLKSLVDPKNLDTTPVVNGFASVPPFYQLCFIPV
pIC50: −log10 of the molar value.
quantityKind: pIC50

- CC(=O)N[C@@H](C)/C=C/c1nnc(Oc2ccc(OCC3CC3)cc2Cl)s1: 4.82
- CCOc1ccc(Oc2ncc(/C=C/[C@H](C)NC(C)=O)s2)cc1: 5.07
- CC(=O)N[C@@H](C)/C=C/c1cnc(Oc2ccc(OCC3CC3)cc2)s1: 5.09
- COC(=O)N[C@@H](C)/C=C/c1cnc(Oc2ccc(OC(C)C)cc2)s1: 5.57
